- Tested on: rat pulmonary fibrosis model
- assayName: Lung tissue pathology, H&E and Masson staining, Szapiel scoring, Example 1
- Type: in vivo, SD rats
- appliedConditions: Masson staining, score 0-3, doses per Table 4, 14 days, X ± SE, N = 6
Measured Pulmonary fibrosis (score) accompanies every entry in the list below.
quantityName: Pulmonary fibrosis (score)

{"compound": "Cc1ccc(=O)n(-c2ccccc2)c1 [Pirfenidone]", "quantityName": "Pulmonary fibrosis (score)", "reportedMeasurement": 1.33}
{"compound": "C[C@H]1CC[C@@H]2N(C1)C[C@H]1[C@@H]3C[C@H]4[C@@H](C[C@H](O)[C@H]5C[C@@H](O)CC[C@@]54C)[C@@H]3CC[C@@H]1[C@]2(C)O [Formula 6, peimine]", "quantityName": "Pulmonary fibrosis (score)", "reportedMeasurement": 1.39}
{"compound": "COc1ccc(-c2cc(=O)c3c(OC)c(OC)c(OC)c(OC)c3o2)cc1OC [Formula 5, nobiletin]", "quantityName": "Pulmonary fibrosis (score)", "reportedMeasurement": 1.56}
{"compound": "COc1ccc(-c2oc3c(CC=C(C)C)c(O[C@@H]4O[C@H](CO)[C@@H](O)[C@H](O)[C@H]4O)cc(O)c3c(=O)c2O[C@@H]2O[C@@H](C)[C@H](O)[C@@H](O)[C@H]2O)cc1 [Formula 3, icariin]", "quantityName": "Pulmonary fibrosis (score)", "reportedMeasurement": 1.33}
{"compound": "O=C(/C=C/c1ccc(O)cc1)c1ccc(O)cc1O [Formula 4, isoliquiritigenin]", "quantityName": "Pulmonary fibrosis (score)", "reportedMeasurement": 1.78}

Attribution: patent US20260108548A1
